This listing pairs compounds with measured IC50.
molecular target: human norepinephrine transporter (hNET) (Homo sapiens); test: cell-based; details: read-out: [3H]NE Uptake IC50
Sequence (P23975 whole entry): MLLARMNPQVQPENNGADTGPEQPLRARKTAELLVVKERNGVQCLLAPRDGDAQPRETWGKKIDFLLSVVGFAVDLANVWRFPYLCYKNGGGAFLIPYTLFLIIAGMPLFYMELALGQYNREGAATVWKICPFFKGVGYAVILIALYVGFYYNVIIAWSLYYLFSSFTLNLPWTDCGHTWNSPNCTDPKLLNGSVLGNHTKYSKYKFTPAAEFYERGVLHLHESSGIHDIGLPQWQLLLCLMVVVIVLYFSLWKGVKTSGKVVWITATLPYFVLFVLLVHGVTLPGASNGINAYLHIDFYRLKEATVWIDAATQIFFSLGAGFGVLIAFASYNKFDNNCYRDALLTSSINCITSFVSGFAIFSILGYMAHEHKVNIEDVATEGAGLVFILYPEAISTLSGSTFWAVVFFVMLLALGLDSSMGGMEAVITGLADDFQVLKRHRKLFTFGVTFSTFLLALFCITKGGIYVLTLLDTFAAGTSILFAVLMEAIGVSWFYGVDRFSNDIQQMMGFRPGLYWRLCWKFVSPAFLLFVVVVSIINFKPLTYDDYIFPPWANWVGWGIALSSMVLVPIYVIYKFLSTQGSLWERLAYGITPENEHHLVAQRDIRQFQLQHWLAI
Could you give me the number in nM? Just the number is fine.

Use these answered entries as a reference point.
compound | targetEntity | uom | resultValue
OC1CCCN(CCCCOC(c2ccc(F)cc2)c2ccc(F)cc2)C1 (stereo not drawn) | human norepinephrine transporter (hNET) (Homo sapiens) | nM | 310
Fc1ccc(C(OCCCCN2CCN(c3ccc(Cl)cc3)CC2)c2ccc(F)cc2)cc1 | human norepinephrine transporter (hNET) (Homo sapiens) | nM | 390

For the next question, use this compound.
// IC50 lookup, compound = Fc1ccc(C(OCCCCN2CCN(c3cccc(C(F)(F)F)c3)CC2)c2ccc(F)cc2)cc1 , result: 310
